Origin of values: ChEMBL document CHEMBL5518236

test.method.notes: Metabolic stability in human hepatocytes assessed as intrinsic clearance measured per 10^6 viable cells/ml at 1 uM measured upto 120 mins by LC-MS/MS analysis
Format: ADME, cell-based, Hepatocyte
measurement.context: read-out: CLH
assay.metric: hepatocyte CLint at 1 µM (µL/min/1e6 cells)
I only need the number, in µL/min/1e6 cells, no unit after it.

Consider the following illustrative entries.
What value of hepatocyte CLint at 1 µM has been reported for the following compound? COc1cc(C#N)c(O[C@H]2CC[C@@](C)(C(=O)O)CC2)cc1C(=O)N[C@@H]1[C@H]2CC[C@H](C2)[C@@H]1C(=O)NC12CC(F)(C1)C2
1.5

# input compound: CC1(CNC(=O)[C@H]2[C@@H]3CC[C@@H](C3)[C@H]2NC(=O)c2cc(O[C@H]3CC[C@@](C)(C(=O)O)CC3)c(F)cc2OCF)CCC1 ; wanted: its hepatocyte CLint at 1 µM
8.4

Form field: reported hepatocyte CLint at 1 µM of CC1(CNC(=O)[C@H]2[C@@H]3CC[C@@H](C3)[C@H]2NC(=O)c2cc(O[C@H]3CC[C@@](C)(C(=O)O)CC3)c(F)cc2OC(F)F)CCC1
26

Now look at this entry.
What hepatocyte CLint at 1 µM value was documented for this compound, COc1cc(F)c(O[C@H]2CC[C@@](CC#N)(C(=O)O)CC2)cc1C(=O)N[C@@H]1[C@H]2CC[C@H](C2)[C@@H]1C(=O)NCC1(C)CCC1 ?
10
